- PROTOCOL: Steady state oral/IV rat PK and compound penetration into spine and brain (Example 16)
- Format: in vivo, Sprague-Dawley rats
- RUN PARAMETERS: male, Sprague-Dawley, rat, plasma, iv, 1 mg/kg, DAY 2, 1 mg/kg IV once per day, plasma
ENDPOINT LABEL: half-life (min)
One number for each entry, in min.

# input What value of half-life has been recorded for this entry: [2H]C([2H])([2H])c1ccc(C#Cc2ccc(S(=O)(=O)N[C@H](Cc3c[nH]c4ccccc34)C(=O)O)s2)cc1 [Compound 118]
# output 56.2

###

- PROTOCOL: In-vivo oral PK of Compound 118 in SOD-1 mice (Example 19)
- Design: species or system SOD-1-G93A (SOD-1) mice
- RUN PARAMETERS: male, SOD-1-G93A, mouse, plasma, po, 200 mg/kg, Male SOD-1 mice, SID, PO 200 mg/Kg for 3 days
ENDPOINT LABEL: AUC

# input Need AUC, item "[2H]C([2H])([2H])c1ccc(C#Cc2ccc(S(=O)(=O)N[C@H](Cc3c[nH]c4ccccc34)C(=O)O)s2)cc1"
# output 121 µg·h/mL

###

- PROTOCOL: Steady state oral/IV rat PK and compound penetration into spine and brain (Example 16)
- Format: in vivo, Sprague-Dawley rats
- RUN PARAMETERS: male, Sprague-Dawley, rat, plasma, po, 10 mg/kg, DAY 2, 10 mg/kg PO once per day, plasma
ENDPOINT LABEL: AUC(0-t) (ng·h/mL)
Numbers only, in ng·h/mL.

# input State the recorded AUC(0-t) for this entry: "[2H]C([2H])([2H])c1ccc(C#Cc2ccc(S(=O)(=O)N[C@H](Cc3c[nH]c4ccccc34)C(=O)O)s2)cc1"
# output 4390

###

- PROTOCOL: Steady state oral/IV rat PK and compound penetration into spine and brain (Example 16)
- Type: in vivo, Sprague-Dawley rats
- RUN PARAMETERS: male, Sprague-Dawley, rat, plasma, po, 20 mg/kg, DAY 2, 20 mg/kg PO once per day, plasma
ENDPOINT LABEL: AUC(0-inf) (ng·h/mL)
One number for each entry, in ng·h/mL.

# input Can you share its AUC(0-inf)? I mean this molecule: "[2H]C([2H])([2H])c1ccc(C#Cc2ccc(S(=O)(=O)N[C@H](Cc3c[nH]c4ccccc34)C(=O)O)s2)cc1"
# output 4730

###

- PROTOCOL: Steady state oral/IV rat PK and compound penetration into spine and brain (Example 16)
- Format: in vivo, Sprague-Dawley rats
- RUN PARAMETERS: male, Sprague-Dawley, rat, plasma, po, 10 mg/kg, DAY 1, 10 mg/kg PO, plasma
ENDPOINT LABEL: AUC(0-t) (ng·h/mL)
One number for each entry, in ng·h/mL.

# input I have this compound here, "[2H]C([2H])([2H])c1ccc(C#Cc2ccc(S(=O)(=O)N[C@H](Cc3c[nH]c4ccccc34)C(=O)O)s2)cc1" , and I need its recorded AUC(0-t).
# output 3770

###

- PROTOCOL: Steady state oral/IV rat PK and compound penetration into spine and brain (Example 16)
- Type: in vivo, Sprague-Dawley rats
- RUN PARAMETERS: male, Sprague-Dawley, rat, plasma, po, 10 mg/kg, DAY 3, 10 mg/kg PO once per day, plasma
ENDPOINT LABEL: AUC(0-inf) (ng·h/mL)
Numbers only, in ng·h/mL.

# input Fill in the blank: the reported AUC(0-inf) of "[2H]C([2H])([2H])c1ccc(C#Cc2ccc(S(=O)(=O)N[C@H](Cc3c[nH]c4ccccc34)C(=O)O)s2)cc1" is ____.
# output 12600

###

- PROTOCOL: Steady state oral/IV rat PK and compound penetration into spine and brain (Example 16)
- Type: in vivo, Sprague-Dawley rats
- RUN PARAMETERS: male, Sprague-Dawley, rat, plasma, po, 10 mg/kg, DAY 1, 10 mg/kg PO, plasma
ENDPOINT LABEL: Cmax (ng/mL)
Numbers only, in ng/mL.

# input If you can, please state the reported Cmax value of [2H]C([2H])([2H])c1ccc(C#Cc2ccc(S(=O)(=O)N[C@H](Cc3c[nH]c4ccccc34)C(=O)O)s2)cc1 [Compound 118] .
# output 1170

###

- PROTOCOL: Steady state oral/IV rat PK and compound penetration into spine and brain (Example 16)
- Type: in vivo, Sprague-Dawley rats
- RUN PARAMETERS: male, Sprague-Dawley, rat, plasma, po, 40 mg/kg, DAY 1, 40 mg/kg PO, plasma
- Procedure: It is important if one is observing biochemical effects in the spine and brain that one is able to show clear evidence that the compound being tested is in fact able to penetrate to those areas of the body. […] On the third after dosing the rats were then sacrificed after taking blood samples and the level of compound measured in the spine and brain. […] […] The plasma, brain and spinal tissue samples were analyzed for test article concentration using a Research Grade LC-MS/MS Assay.
ENDPOINT LABEL: Cmax (ng/mL)
One number for each entry, in ng/mL.

# input Record request: Cmax value, item [2H]C([2H])([2H])c1ccc(C#Cc2ccc(S(=O)(=O)N[C@H](Cc3c[nH]c4ccccc34)C(=O)O)s2)cc1 [Compound 118]
# output 5020

###

- PROTOCOL: Steady state oral/IV rat PK and compound penetration into spine and brain (Example 16)
- Format: in vivo, Sprague-Dawley rats
- RUN PARAMETERS: male, Sprague-Dawley, rat, plasma, po, 40 mg/kg, DAY 3, 40 mg/kg PO once per day, plasma
ENDPOINT LABEL: AUC(0-t) (ng·h/mL)
Numbers only, in ng·h/mL.

# input Could you tell me which AUC(0-t) is on file for "[2H]C([2H])([2H])c1ccc(C#Cc2ccc(S(=O)(=O)N[C@H](Cc3c[nH]c4ccccc34)C(=O)O)s2)cc1" ?
# output 15600

###

- PROTOCOL: Steady state oral/IV rat PK and compound penetration into spine and brain (Example 16)
- Assay type: in vivo, Sprague-Dawley rats
- RUN PARAMETERS: male, Sprague-Dawley, brain; 10-40 mg/Kg daily oral dose, Day 3, rat; highest level at 40 mg/Kg; read-out: Compound level in the brain
ENDPOINT LABEL: concentration at 5 h

# input Fill in: concentration at 5 h of "[2H]C([2H])([2H])c1ccc(C#Cc2ccc(S(=O)(=O)N[C@H](Cc3c[nH]c4ccccc34)C(=O)O)s2)cc1" is ___
# output 30 to 84 ng/mL

###

- PROTOCOL: In-vivo oral PK of Compound 118 in SOD-1 mice (Example 19)
- Design: species or system SOD-1-G93A (SOD-1) mice
- RUN PARAMETERS: female, SOD-1-G93A, mouse, plasma, po, 200 mg/kg, Female SOD-1 mice, SID, PO 200 mg/Kg for 3 days
ENDPOINT LABEL: Cmax (µg/mL)
Numbers only, in µg/mL.

# input Any idea what its Cmax is? The compound is [2H]C([2H])([2H])c1ccc(C#Cc2ccc(S(=O)(=O)N[C@H](Cc3c[nH]c4ccccc34)C(=O)O)s2)cc1 [Compound 118]
# output 96

###

- PROTOCOL: Steady state oral/IV rat PK and compound penetration into spine and brain (Example 16)
- Type: in vivo, Sprague-Dawley rats
- RUN PARAMETERS: male, Sprague-Dawley, spine; 10-40 mg/Kg daily oral dose, Day 3, rat; highest level at 40 mg/Kg; read-out: Compound level in the spine
ENDPOINT LABEL: concentration at 5 h

# input GET /values?readout=concentration at 5 h&item= [2H]C([2H])([2H])c1ccc(C#Cc2ccc(S(=O)(=O)N[C@H](Cc3c[nH]c4ccccc34)C(=O)O)s2)cc1 [Compound 118]
# output 15 to 31 ng/mL

###

- PROTOCOL: In-vivo oral PK of Compound 118 in SOD-1 mice (Example 19)
- Set-up: species or system SOD-1-G93A (SOD-1) mice
- RUN PARAMETERS: female, SOD-1-G93A, mouse, plasma, po, 200 mg/kg, Female SOD-1 mice, SID, PO 200 mg/Kg for 3 days
ENDPOINT LABEL: AUC (µg·h/mL)
Give bare numbers, in µg·h/mL.

# input Form field: reported AUC of [2H]C([2H])([2H])c1ccc(C#Cc2ccc(S(=O)(=O)N[C@H](Cc3c[nH]c4ccccc34)C(=O)O)s2)cc1 [Compound 118]
# output 342

###

- PROTOCOL: Steady state oral/IV rat PK and compound penetration into spine and brain (Example 16)
- Format: in vivo, Sprague-Dawley rats
- RUN PARAMETERS: male, Sprague-Dawley, rat, plasma, po, 10 mg/kg, DAY 1, 10 mg/kg PO, plasma
ENDPOINT LABEL: AUC(0-inf) (ng·h/mL)
Give bare numbers, in ng·h/mL.

# input Entry "[2H]C([2H])([2H])c1ccc(C#Cc2ccc(S(=O)(=O)N[C@H](Cc3c[nH]c4ccccc34)C(=O)O)s2)cc1" : reported AUC(0-inf) = ?
# output 3880
